# protocolSummary: protein stability index of a GFP-peptide fusion (yeast GPS) (PSI 1-4); higher = more stable; sorted into four equal gates, so the index is relative within each strain
# setupConditions: pdr5∆
Cut-off 3 on protein stability index, inclusive. At or above means criterion met; below means criterion not met.

[
  {
    "biosequence": "KLAAIVEIIDQKKVLID [RPL14A]",
    "qualitativeLabel": "criterion not met"
  },
  {
    "biosequence": "IKPKPLWSGKQILSVAI [RPO21]",
    "qualitativeLabel": "criterion not met"
  },
  {
    "biosequence": "VEDGNILVFQVSMKANK [RPL25]",
    "qualitativeLabel": "criterion not met"
  },
  {
    "biosequence": "GLSKEDDVRDFVIRREV [RPS6A]",
    "qualitativeLabel": "criterion met"
  },
  {
    "biosequence": "GLFGNKPNNTANTGGGL [YGL172W/NUP49]",
    "qualitativeLabel": "criterion met"
  },
  {
    "biosequence": "CVNLSLFDARFERKNPH [SRB8]",
    "qualitativeLabel": "criterion met"
  },
  {
    "biosequence": "GTNKDMILKLVCQVTKF [ECM29]",
    "qualitativeLabel": "criterion not met"
  },
  {
    "biosequence": "NSSVGNKTDAQAPTTGF [YJL041W/NSP1]",
    "qualitativeLabel": "criterion met"
  },
  {
    "biosequence": "INAKNIAFASNYGIVEL [RRP43]",
    "qualitativeLabel": "criterion not met"
  },
  {
    "biosequence": "LILSGDTTANNGKVQYF [YJL039C/NUP192]",
    "qualitativeLabel": "criterion not met"
  },
  {
    "biosequence": "QIDQLNRLLPNLPEEER [GRR1]",
    "qualitativeLabel": "criterion not met"
  },
  {
    "biosequence": "TEIISTLSNGLIASHYG [BRR2]",
    "qualitativeLabel": "criterion not met"
  }
]

====

Entries and their measured protein stability index follow.
# protocolSummary: protein stability index of a GFP-peptide fusion (yeast GPS) (PSI 1-4); higher = more stable; sorted into four equal gates, so the index is relative within each strain
# setupConditions: ubr1∆

[
  {
    "biosequence": "KDIAKRQFKEILTVKEE [RRP40]",
    "protein stability index": 2.52
  },
  {
    "biosequence": "PHIIAVACLFITISIHG [SSN8]",
    "protein stability index": 1.47
  },
  {
    "biosequence": "AEEFDFNVPVVSKQLGN [YAR002W/NUP60]",
    "protein stability index": 1.14
  },
  {
    "biosequence": "NLKLISVSLVDEFPSEL [SIR4]",
    "protein stability index": 2.6
  },
  {
    "biosequence": "SEEEEDEEENGSSDEDL [SSN2]",
    "protein stability index": 3.32
  },
  {
    "biosequence": "TGNGTTTTSNTSGTNIA [YOR098C/NUP1]",
    "protein stability index": 2.41
  },
  {
    "biosequence": "DSTQLLETILEEFRNLA [SSN2]",
    "protein stability index": 3.2
  },
  {
    "biosequence": "EFVDDYTVNVVDVFAMP [RPN11]",
    "protein stability index": 3.13
  },
  {
    "biosequence": "GNAPATPSSDQNPLPTR [SOH1]",
    "protein stability index": 3.17
  },
  {
    "biosequence": "TVSILQESSSLRLLEVT [POP8]",
    "protein stability index": 2.33
  },
  {
    "biosequence": "GINPNTFRIFHNHDTGC [YDL088C/ASM4]",
    "protein stability index": 1.44
  },
  {
    "biosequence": "KLKNNASRSQLEKGEIE [YJL039C/NUP192]",
    "protein stability index": 3.08
  },
  {
    "biosequence": "RVNGSEFVHKYLGEGPR [RPT3]",
    "protein stability index": 3
  },
  {
    "biosequence": "GDTVRILDTSQSESRQK [SNU114]",
    "protein stability index": 2.9
  },
  {
    "biosequence": "KIFWERLKEINGWEKYL [ISW2]",
    "protein stability index": 1.46
  },
  {
    "biosequence": "RRSKQLINLAKTRVGSV [RPC82]",
    "protein stability index": 3.25
  },
  {
    "biosequence": "ELQKLVHDLNKYKSNTN [SMC2]",
    "protein stability index": 3.32
  },
  {
    "biosequence": "PNSERSGTPTLKKNIEP [YOR098C/NUP1]",
    "protein stability index": 3.07
  },
  {
    "biosequence": "EMGKTDKSTKTAEAPTL [YOR098C/NUP1]",
    "protein stability index": 2.86
  },
  {
    "biosequence": "LDGELDFDDFLKLGLVE [RET1]",
    "protein stability index": 2.56
  },
  {
    "biosequence": "PSYAERQSSDESDNYRL [YML031W/NDC1]",
    "protein stability index": 2.7
  },
  {
    "biosequence": "DMQSSVDTGLQPQHPHY [YLR018C/POM34]",
    "protein stability index": 2.96
  },
  {
    "biosequence": "LNYGVYLNGTLIGSIRF [RET1]",
    "protein stability index": 2.71
  },
  {
    "biosequence": "HQNESSAASIPPQQTYH [RPN4]",
    "protein stability index": 2.69
  },
  {
    "biosequence": "FIFQIIEITNSNDLCSQ [SRB8]",
    "protein stability index": 1.21
  },
  {
    "biosequence": "NVDKNLNEIKEHKIVVL [RPN14]",
    "protein stability index": 2.74
  },
  {
    "biosequence": "TSQMDLARDTPSANNSS [RRP4]",
    "protein stability index": 1.51
  },
  {
    "biosequence": "LQAQDRAHRIGQKNEVR [SNF2]",
    "protein stability index": 3.18
  },
  {
    "biosequence": "AKAVWENIIIVGGTTSI [ARP9]",
    "protein stability index": 2.48
  },
  {
    "biosequence": "RKCQFRTPDSISVNSSS [POP1]",
    "protein stability index": 2.37
  },
  {
    "biosequence": "LSQQQKDAQKKDIEKLT [YIL149C/MLP2]",
    "protein stability index": 2.97
  },
  {
    "biosequence": "PFSLTYVRTEETDGKHG [YMR129W/POM152]",
    "protein stability index": 3.19
  },
  {
    "biosequence": "RAGIIIAKLSVIPIRRG [RPS2]",
    "protein stability index": 2.25
  },
  {
    "biosequence": "AKRVENFNSSAPIADDN [DSN1]",
    "protein stability index": 3.43
  },
  {
    "biosequence": "RDIEKITSLYALIRRDF [CDC53]",
    "protein stability index": 1.75
  },
  {
    "biosequence": "KVDIFEIPETGEYSVKL [FAS2]",
    "protein stability index": 2.99
  },
  {
    "biosequence": "MGENEKPDVTYADVGGL [RPT3]",
    "protein stability index": 3.31
  },
  {
    "biosequence": "TPDANLISKPAKKNNFI [UBP6]",
    "protein stability index": 3.21
  },
  {
    "biosequence": "SPFGAYGEAPTSPGFGV [RPO21]",
    "protein stability index": 3.17
  },
  {
    "biosequence": "FKAMEDVIAWKNVLANS [ITC1]",
    "protein stability index": 3.49
  },
  {
    "biosequence": "TGLKLYSRITLIIDDPS [RPP1]",
    "protein stability index": 2.75
  },
  {
    "biosequence": "VTDLSGKETIARVTGGM [RPS14B]",
    "protein stability index": 2.9
  },
  {
    "biosequence": "GGSRGGGSNYMSNLPFG [RPC31]",
    "protein stability index": 3.14
  },
  {
    "biosequence": "RAASVGSLKLIELLCGL [NAS6]",
    "protein stability index": 1.83
  },
  {
    "biosequence": "NVEESVSKADILLSHHR [POP5]",
    "protein stability index": 3.03
  },
  {
    "biosequence": "HILLTELLAYQFASPVR [FAS2]",
    "protein stability index": 1.77
  },
  {
    "biosequence": "QESFNSVQNLDQLLTDL [NUT1]",
    "protein stability index": 3.17
  },
  {
    "biosequence": "QTPAEKHAFMGTLKKDL [RPL3]",
    "protein stability index": 2.96
  },
  {
    "biosequence": "LQAIDLLENPNCFFDVI [DIS3]",
    "protein stability index": 2.38
  },
  {
    "biosequence": "VNDNPDIEAGDDDDNNE [DIS3]",
    "protein stability index": 3.33
  },
  {
    "biosequence": "KQVQISHHLKADTIDHD [YGL172W/NUP49]",
    "protein stability index": 2.92
  },
  {
    "biosequence": "TGSDREVQRILIELLTQ [RPT3]",
    "protein stability index": 3.5
  },
  {
    "biosequence": "DSNSEILNFLNQEDLFE [YML103C/NUP188]",
    "protein stability index": 3.14
  },
  {
    "biosequence": "QDRLSDLIHKSEAFPSL [SMC4]",
    "protein stability index": 3.03
  },
  {
    "biosequence": "LVTIEGALIHKAGLMTG [SMC1]",
    "protein stability index": 2.95
  },
  {
    "biosequence": "REGRHSGYGKRKGTREA [RPL19A]",
    "protein stability index": 3.52
  },
  {
    "biosequence": "KKSLEEDDEFEDFPIDT [SEM1]",
    "protein stability index": 3.02
  },
  {
    "biosequence": "EVVEVQEETVVEQTAEV [RPS12]",
    "protein stability index": 3.24
  },
  {
    "biosequence": "IQSKRLRNKIAGYTTHL [RPS17A]",
    "protein stability index": 3.36
  }
]
